// data source = a melting point compilation (Tetko et al.)

experimental-readout: melting point (°C)

                      compound  experimental_readout  value
0  Cc1c(Cl)c(Cl)c(Cl)c(Cl)c1Cl         melting point    225

1. CC(=O)Oc1ccc(C2(c3ccc(OC(C)=O)cc3)Oc3ccccc3NC2=O)cc1
2. CC(=O)C(=NNc1ccc(Br)cc1)C(C)=O
Input pair: 1 , 2 . Output: entry with lower melting point. Write down the label attached to your selection. 2

P. CNC(C)C1CCC(N)C(OC2C(N)CC(N)C(OC3OCC(C)(O)C(NC)C3O)C2O)O1 (stereo not given)
Q. FCc1ccccc1
R. O=[N+]([O-])c1cc(N=C=S)ccc1Cl
In this exercise, place the 3 compounds in ascending sequence of their recorded melting point. Dear reader, please state the labels in the requested order. Q, R, P

I. OC1(C#Cc2ccccc2)Cc2ccccc21 (stereo not given)
II. C=COC(=O)CCCCCCCCCCCCCCCCC
III. C=C(C)CCC=C(C)C
IV. O=C(Nc1ccc([N+](=O)[O-])cc1)Nc1ccc([N+](=O)[O-])cc1
V. CCC(=O)c1cc(C)ccc1O
# rank_down: sort by melting point, max first Provide your answer as the labels ordered per the instruction. IV, I, II, V, III

I. O=[N+]([O-])c1cc(C=NNc2ccccc2)ccc1C=NNc1ccccc1
II. O=[N+]([O-])c1ccc(OCCBr)cc1
III. c1ccc2c(c1)CCCN2
IV. COc1ccc(C(C)=O)cc1[N+](=O)[O-]
Highest melting point first, then in falling order down to the smallest. # output: labels, in the requested order I, IV, II, III

A. NCc1cc(C(F)(F)F)cc(C(F)(F)F)c1
B. CCOC(=O)C1Cc2cc3c(cc2NC1=O)NC(=O)C(C(=O)OCC)C3 (stereo not given)
Parameter check: reported melting point is higher for which label, A or B ? Record your answer as the label of the chosen record. B
(B: 242 °C, A: 57 °C)
